system: EA.hy926 cells; experiment: Alamar Blue cytotoxicity assay on EA.hy926 cells; assay type: cell-based, human; details: Homo sapiens, EA.hy 926; 48 h exposure, Alamar Blue; read-out: IC50 EA.hy926
Property: IC50 (nM)
Value expressed in nM; do not type the unit.

Some compounds with recorded IC50:
Compound | Target of assay | IC50 (nM)
COc1ccc(-c2csc(N/N=C/c3ccc(Oc4ncnc5cc(OC)c(OC)cc45)cc3)n2)cc1 [SA01] | EA.hy926 cells | 3640
COc1cc2ncnc(Oc3ccc(/C=N/Nc4nc(-c5ccc(C(F)(F)F)cc5)cs4)cc3)c2cc1OC [SA04] | EA.hy926 cells | 980
COc1cc2ncnc(Oc3ccc(/C=N/Nc4nc(-c5ccc(O)c(C(N)=O)c5)cs4)cc3)c2cc1OC [SA07] | EA.hy926 cells | 5850

## Input Give reported IC50 value for COc1cc2ncnc(Oc3ccc(/C=N/Nc4nc(-c5ccc(Cl)cc5)cs4)cc3)c2cc1OC [SA03]
## Output 790

## Input Supply reported IC50 belonging to this compound: COc1cc2ncnc(Oc3ccc(/C=N/Nc4nc(-c5ccc(F)cc5)cs4)cc3)c2cc1OC [SA02]
## Output 930

## Input Give the value of IC50 reported for the following: COc1cc2ncnc(Oc3ccc(/C=N/Nc4nc(-c5ccc(C#N)cc5)cs4)cc3)c2cc1OC [SA05]
## Output 1400

----------
Property: melting point

The cases that follow already have their melting point on record.
Compound | melting point
COc1cc2ncnc(Oc3ccc(/C=N/Nc4nc(-c5ccc(F)cc5)cs4)cc3)c2cc1OC [SA02] | 242 to 243 °C
COc1ccc(-c2csc(N/N=C/c3ccc(Oc4ncnc5cc(OC)c(OC)cc45)cc3)n2)cc1 [SA01] | 230 °C
COc1cc2ncnc(Oc3ccc(/C=N/Nc4nc(-c5ccc(C(F)(F)F)cc5)cs4)cc3)c2cc1OC [SA04] | 237 to 238 °C
COc1cc2ncnc(Oc3ccc(/C=N/Nc4nc(-c5ccc(O)c(C(N)=O)c5)cs4)cc3)c2cc1OC [SA07] | 246 to 247 °C

We next turn to a different compound, shown below.
## Input Please list melting point recorded for the compound COc1cc2ncnc(Oc3ccc(/C=N/Nc4nc(-c5ccc(Cl)cc5)cs4)cc3)c2cc1OC [SA03]
## Output 231 to 232 °C

Taken from paper PMC10886515.
